TARGET_DESC: Trypanothione reductase (Leishmania infantum, UniProt A4HSF7)
Sequence (A4HSF7 whole entry): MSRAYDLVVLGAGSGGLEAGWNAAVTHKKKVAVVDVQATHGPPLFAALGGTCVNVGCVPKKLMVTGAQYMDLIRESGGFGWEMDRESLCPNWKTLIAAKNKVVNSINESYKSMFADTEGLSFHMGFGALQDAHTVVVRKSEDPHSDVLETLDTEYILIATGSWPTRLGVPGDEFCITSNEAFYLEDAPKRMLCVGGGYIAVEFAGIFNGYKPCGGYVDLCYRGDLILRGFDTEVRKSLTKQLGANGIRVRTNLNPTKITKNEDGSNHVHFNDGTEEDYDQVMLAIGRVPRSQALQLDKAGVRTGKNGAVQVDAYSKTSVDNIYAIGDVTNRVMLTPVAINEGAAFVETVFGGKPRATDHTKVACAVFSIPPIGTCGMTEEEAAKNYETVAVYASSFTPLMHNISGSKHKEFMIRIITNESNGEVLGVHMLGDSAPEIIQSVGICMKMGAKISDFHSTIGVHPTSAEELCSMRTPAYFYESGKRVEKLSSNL
ASSAY_TEXT: Inhibition of recombinant Leishmania infantum trypanothione reductase using T[S]2 as substrate preincubated for 5 mins followed by substrate and NADPH addition measured for 1 hr
Non-standard residues stand in square brackets, D forms with d. Residues, ends and D or L forms follow the SMILES beside them. R5 = C=CCCC[C@@](C)(N)C(=O)O
Assign pIC50 to each entry below.
Numbers only, as −log10 of the molar value.

C=CCCC[C@@](C)(NC(=O)[C@@H](NC(=O)[C@H](CO)NC(=O)[C@H](CCC(N)=O)NC(=O)[C@@](C)(CCCC=C)NC(=O)[C@@H](NC(=O)[C@H](CCCCN)NC(=O)[C@@H]1CCCN1C(C)=O)[C@@H](C)CC)C(C)C)C(=O)N[C@H](C(=O)N[C@@H](CO)C(=O)NCC(=O)N[C@@H](CCCCN)C(=O)NCC(N)=O)[C@@H](C)CC (Ac-PKI[R5]QSV[R5]ISGKG-NH2)
4.90

Attention now turns to another entry.
stdin: Name the reported pIC50 value associated with the molecule CCCC[C@H](NC(=O)[C@H](CC(C)C)NC(=O)[C@H](CCCC)NC(=O)[C@H](CO)NC(=O)[C@@H](NC(=O)CNC(=O)[C@]1(C)CCCC=CCCC[C@@](C)(NC(=O)[C@H](CC(C)C)NC(=O)[C@@H]2CCCN2C(C)=O)C(=O)N[C@@H]([C@@H](C)CC)C(=O)N[C@@H](CCC(N)=O)C(=O)N[C@@H](CO)C(=O)N1)[C@@H](C)CC)C(N)=O (stereo in doubt; 2a)
stdout: 5.17

---

TARGET_DESC: Trypanothione reductase (Leishmania infantum)
ASSAY_TEXT: Inhibition of dimerization of HIS/FLAG tagged Leishmania infantum trypanothione reductase assessed as dimer levels at 9.375 uM incubated for 16 hrs by ELISA
Parameters: scale not given: the % may be the effect or the level left
MEASUREMENT_NAME: Activity (%)
Answers are plain numbers, in %.

stdin: Given the entry CCCC[C@@H](NC(=O)[C@H](CC(C)C)NC(=O)[C@@H](CCCC)NC(=O)[C@H](CO)NC(=O)[C@@H](NC(=O)CNC(=O)C1(C)CCCC=CCCC[C@@](C)(NC(=O)[C@@H](NC(=O)[C@H](CC(C)C)NC(=O)[C@@H]2CCCN2C(C)=O)[C@@H](C)CC)C(=O)N[C@@H](CCC(N)=O)C(=O)N[C@@H](CO)C(=O)N[C@@H](C(C)C)C(=O)N1)[C@@H](C)CC)C(N)=O (stereo partly specified) , report its measured Activity.
stdout: 140

---

Give Activity for every item shown.
TARGET_DESC: Trypanothione reductase (Leishmania infantum)
ASSAY_TEXT: Inhibition of dimerization of HIS/FLAG tagged Leishmania infantum trypanothione reductase assessed as dimer levels at 18.75 uM incubated for 16 hrs by ELISA
Design: scale not given: the % may be the effect or the level left
Non-standard residues stand in square brackets, D forms with d. Residues, ends and D or L forms follow the SMILES beside them. R5 = C=CCCC[C@@](C)(N)C(=O)O
One number for each entry, in %.

CCCC[C@@H](NC(=O)[C@H](CC(C)C)NC(=O)[C@@H](CCCC)NC(=O)[C@H](CO)NC(=O)[C@@H](NC(=O)CNC(=O)[C@@H](NC(=O)[C@H](CO)NC(=O)[C@H](CCC(N)=O)NC(=O)[C@@H](NC(=O)[C@@H](NC(=O)[C@H](CC(C)C)NC(=O)[C@@H]1CCCN1C(C)=O)[C@@H](C)CC)[C@@H](C)CC)C(C)C)[C@@H](C)CC)C(N)=O
56
CCCC[C@@H](NC(=O)[C@H](CC(C)C)NC(=O)[C@@H](CCCC)NC(=O)[C@H](CO)NC(=O)[C@@H](NC(=O)CNC(=O)C1(C)CCCC=CCCC[C@@](C)(NC(=O)[C@@H](NC(=O)[C@H](CC(C)C)NC(=O)[C@@H]2CCCN2C(C)=O)[C@@H](C)CC)C(=O)N[C@@H](CCC(N)=O)C(=O)N[C@@H](CO)C(=O)N[C@@H](C(C)C)C(=O)N1)[C@@H](C)CC)C(N)=O (some centres undefined)
144
CCCC[C@H](NC(=O)[C@H](CC(C)C)NC(=O)[C@H](CCCC)NC(=O)[C@H](CO)NC(=O)[C@@H](NC(=O)CNC(=O)[C@]1(C)CCCC=CCCC[C@@](C)(NC(=O)[C@H](CC(C)C)NC(=O)[C@@H]2CCCN2C(C)=O)C(=O)N[C@@H]([C@@H](C)CC)C(=O)N[C@@H](CCC(N)=O)C(=O)N[C@@H](CO)C(=O)N1)[C@@H](C)CC)C(N)=O (stereo in doubt; 2a)
130

Could you now consider this next compound?
stdin: Quick one: Activity for C=CCCC[C@@](C)(NC(=O)[C@@H](NC(=O)[C@H](CO)NC(=O)[C@H](CCC(N)=O)NC(=O)[C@@](C)(CCCC=C)NC(=O)[C@@H](NC(=O)[C@H](CCCCN)NC(=O)[C@@H]1CCCN1C(C)=O)[C@@H](C)CC)C(C)C)C(=O)N[C@H](C(=O)N[C@@H](CO)C(=O)NCC(=O)N[C@@H](CCCCN)C(=O)NCC(N)=O)[C@@H](C)CC (Ac-PKI[R5]QSV[R5]ISGKG-NH2) ?
stdout: 145

---

TARGET_DESC: Proteinase K (Engyodontium album, UniProt P06873)
Sequence (P06873 whole entry): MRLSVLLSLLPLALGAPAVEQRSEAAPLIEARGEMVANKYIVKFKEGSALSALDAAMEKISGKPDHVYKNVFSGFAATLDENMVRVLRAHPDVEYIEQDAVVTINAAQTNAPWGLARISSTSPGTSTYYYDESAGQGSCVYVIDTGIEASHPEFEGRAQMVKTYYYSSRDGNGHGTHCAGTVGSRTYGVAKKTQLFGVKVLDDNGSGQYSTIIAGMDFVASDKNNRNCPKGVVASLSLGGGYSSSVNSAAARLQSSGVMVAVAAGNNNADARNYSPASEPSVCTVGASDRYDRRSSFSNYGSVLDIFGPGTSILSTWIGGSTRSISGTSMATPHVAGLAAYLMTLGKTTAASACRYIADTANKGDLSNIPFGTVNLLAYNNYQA
ASSAY_TEXT: Drug metabolism assessed as Tritirachium album proteinase K-mediated compound degradation by measuring half life at 100 uM measured up to 360 mins by HPLC method
Format: ADME
EXPERIMENTAL_CONTEXT: parengyodontium album
MEASUREMENT_NAME: half-life at 100 µM

stdin: I have this compound here, CCCC[C@H](NC(=O)[C@H](CC(C)C)NC(=O)[C@H](CCCC)NC(=O)[C@H](CO)NC(=O)[C@@H](NC(=O)CNC(=O)[C@@H](NC(=O)[C@H](CO)NC(=O)[C@H](CCC(N)=O)NC(=O)[C@@H](NC(=O)[C@@H](NC(=O)[C@H](CC(C)C)NC(=O)[C@@H]1CCCN1C(C)=O)[C@@H](C)CC)[C@@H](C)CC)C(C)C)[C@@H](C)CC)C(N)=O , and I need its recorded half-life at 100 µM.
stdout: 22.5 to 23 min
